Tested on: MOLT-4 leukemia
assay procedure: NCI-60 one-dose screen, 48 h (100 = growth as untreated, 0 = no growth, -100 = all killed)
experimental setup: 10 µM unless noted
Compounds without any hit were thinned out: in the full panel of roughly 83,000, 20% have a hit. The source made the active and inactive calls. The calls were made as follows: active = growth percent below 10; inactive = the rest.
The molecules listed here are annotated with their growth.
assay readout: growth

structure_as_smiles=C#C[C@@]1(O)[C@@H](CO)O[C@@H](n2cc(Cl)c3c(N)ccnc32)[C@@H]1O assay_readout=growth result="45.6% (inactive)"
structure_as_smiles=Cc1cc(C)c2nc(Nc3nc(C)c(C)c(=O)[nH]3)nc(C)c2c1 assay_readout=growth result="4.84% (active)"
structure_as_smiles=Cc1[nH]c2ncnc(Oc3ccc(NC(=O)Nc4ccc(Cl)c(C(F)(F)F)c4)cc3)c2c1C assay_readout=growth result="27.4% (inactive)"
structure_as_smiles=O=C1Nc2ccc(Cl)cc2/C1=N/c1nc(-c2ccc(F)cc2)cs1 assay_readout=growth result="1.99% (active)"
structure_as_smiles=COc1ccc([C@H]2[C@@H](F)C(=O)N2c2cc(OC)c(OC)c(OC)c2)cc1F assay_readout=growth result="19.7% (inactive)"

* * *

Tested on: SNB-19 CNS
assay procedure: NCI-60 one-dose screen, 48 h (100 = growth as untreated, 0 = no growth, -100 = all killed)
experimental setup: 10 µM unless noted
About 83,000 compounds went through this panel and 20% of them were active in at least one assay; those are over-represented in the sample as a whole.
Returns one of TRUE or FALSE; TRUE when growth is >= 60%.

structure_as_smiles=Nc1c(C(=O)Nc2cccc3ccccc23)sc2nc3c(cc12)COCC3 class_assignment=FALSE
structure_as_smiles=COc1ccc(OCC(=O)OC(C)C)cc1 class_assignment=TRUE
structure_as_smiles=O=C1C(Cl)=C(NCCCN(CCCNC2=C(Cl)C(=O)c3ccccc3C2=O)C2=C(Cl)C(=O)c3ccccc3C2=O)C(=O)c2ccccc21 class_assignment=TRUE
structure_as_smiles=CCCCn1c(=O)c(/C=C/C(=O)/C=C/c2ccc(O)c(OC)c2)cc2ccc(Cl)cc21 class_assignment=FALSE
structure_as_smiles=C#Cc1ccccc1NC(=O)c1sc2nc3c(cc2c1N)CCCCC3 class_assignment=TRUE
structure_as_smiles=COc1cc(NC(=O)Nc2cnc(Nc3ccc(N4CCOCC4)cc3)nc2Oc2ccc(C(F)(F)F)cc2)cc(OC)c1 class_assignment=TRUE
structure_as_smiles=O=C1Nc2ccc(Cl)cc2/C1=N/c1nc(-c2ccc(F)cc2)cs1 class_assignment=FALSE
structure_as_smiles=COc1cccc(C(=O)OCCn2nc3c4c(cccc42)C(=O)c2ccccc2-3)c1O class_assignment=FALSE

* * *

Tested on: CCRF-CEM leukemia
assay procedure: NCI-60 one-dose screen, 48 h (100 = growth as untreated, 0 = no growth, -100 = all killed)
experimental setup: 10 µM unless noted
The panel holds about 83,000 compounds, 20% with a hit somewhere; the sample as a whole holds those more often.
Returns one of True or False; True when growth is >= 20%.

compound=Cc1ccc(C2=N[C@H]3CCC[C@@H]3N(c3ccccc3)C(C(Cl)Cl)=N2)cc1 class_assignment=True
compound=COc1cc(C(=O)Nc2cc(O)c(C/C=C(\C)CCC=C(C)C)c(O)c2)cc2c1O[C@]1(C)CC[C@@H](O)C(C)(C)[C@H]1C2 class_assignment=False
compound=Cc1cc(C)c2nc(Nc3nc(C)c(C)c(=O)[nH]3)nc(C)c2c1 class_assignment=False
compound="NC(=O)c1ccc(C2C3=C(CCCC3=O)OC3=C2C(=O)c2ccccc2C3=O)cc1 (centres undefined)" class_assignment=False
compound=COC(=O)/C=C1\SC(=Nc2cccc(Cl)c2)N(CCc2c[nH]c3ccccc23)C1=O class_assignment=False
compound=C#Cc1ccccc1NC(=O)c1sc2nc3c(cc2c1N)CCCCC3 class_assignment=True
compound=C=CCn1c(CN2CCN(c3cc4c(cc3F)c(=O)c(C(=O)O)cn4C3CC3)CC2)n[nH]c1=S class_assignment=True
compound=C=C1C(=O)O[C@H]2[C@H]1CC/C(COC(=O)c1cn(C)c3ccccc13)=C\CC[C@@]1(C)O[C@@H]21 class_assignment=False
compound=O=C(/C(=C\c1c(-c2ccccc2)[nH]c2ccccc12)S(=O)(=O)c1ccccc1)c1ccccc1 class_assignment=True
compound=COc1cc2nc3c(=O)n(CCN(C)C)cnn3c(=O)c2cc1OC class_assignment=True
compound=CCn1cc(C(=O)O)c(=O)c2cc(F)c(N3CCN(CC(=O)Nc4ccc(/C(C)=N/OC)cc4)CC3)cc21 class_assignment=True
compound=O=S(=O)(Nc1nccs1)c1ccc(Nc2nc(-c3ccncc3)cs2)cc1 class_assignment=True
compound=c1ccc(-c2n(Cc3ccc4ccccc4n3)cc[n+]2Cc2ccc3ccccc3n2)cc1 class_assignment=True
compound=COc1ccc(-c2cn(-c3ccc(Cl)cc3)c(=S)[nH]2)cc1OC class_assignment=True
compound=C=C1C(=O)O[C@H]2[C@H]1CC/C(COC(=O)CCCCCCCCC(=O)OC/C1=C/CC[C@@]3(C)O[C@H]3[C@H]3OC(=O)C(=C)[C@@H]3CC1)=C\CC[C@@]1(C)O[C@@H]21 class_assignment=False
compound=COc1ccc(Sc2[nH]c(C(C)=O)c3ccccc23)cc1 class_assignment=True
compound=C#CC[C@@H]1C[C@]2(C)[C@H]3CC[C@@H]4[C@H]5[C@H](C(=C)C)CC[C@]5(C(=O)O)CC[C@@]4(C)[C@]3(C)CC[C@H]2C(C)(C)[C@H]1O class_assignment=True
compound="O=C1CCC23OC(C(O)c4ccccc4N12)C1C(Br)=NOC13 (centres undefined)" class_assignment=True
compound=C=C(C)[C@@H]1CC[C@]2(C(=O)O)CC[C@]3(C)[C@H](CC[C@@H]4[C@@]5(C)C[C@@H](CC#Cc6ccc(Cl)cc6)C(=O)C(C)(C)[C@@H]5CC[C@]43C)[C@@H]12 class_assignment=True
compound=CC(C)(C)CC(C)(C)Cc1ccc(OCCOCC[N+](C)(C)Cc2ccccc2)cc1 class_assignment=False
compound=C=C1C(=O)O[C@H]2[C@H]1CC/C(COC(=O)c1cccnc1N)=C\CC[C@@]1(C)O[C@@H]21 class_assignment=False
compound=O=C1NC(SCc2ccc(F)cc2)=N/C1=C/c1cccc(OCc2ccc(Cl)cc2)c1 class_assignment=True
compound=Cc1nccc2c3ccc(OCc4cn(-c5ccc(Br)cc5)nn4)cc3n(CC(C)C)c12 class_assignment=True
compound=C=C(C)[C@@H]1CC[C@]2(C(=O)OCCOCCOCC[P+](c3ccccc3)(c3ccccc3)c3ccccc3)CC[C@]3(C)[C@H](CC[C@@H]4[C@@]5(C)CC[C@H](OC(=O)C(Cl)Cl)C(C)(C)[C@@H]5CC[C@]43C)[C@@H]12 class_assignment=False
compound=N#Cc1c(-c2ccc(F)cc2)nc(N/N=C/c2c[nH]c3ccccc23)nc1N1CCOCC1 class_assignment=True
compound="COc1ccc(-c2cc(C(=O)N3N=C(c4ccc(N)cc4)CC3c3ccc(OC)cc3)c3cc(OC)ccc3n2)cc1 (centres undefined)" class_assignment=True
compound=C=C1C(=O)O[C@H]2[C@H]1CC/C(COC(=O)c1c[nH]c3ccccc13)=C\CC[C@@]1(C)O[C@@H]21 class_assignment=False
compound=CC1CCN(CCCCCOc2ccc3oc4ccccc4c(=O)c3c2)CC1 class_assignment=True
compound=CCOC(=O)/C=C1\SC(=Nc2ccc(C#N)cc2)N(CCN2C(=O)/C(=C/C(=O)OCC)SC2=Nc2ccc(C#N)cc2)C1=O class_assignment=False
compound=C=C1C(=O)O[C@H]2[C@H]1CC/C(COC(=O)CCCCC(=O)OC/C1=C/CC[C@@]3(C)O[C@H]3[C@H]3OC(=O)C(=C)[C@@H]3CC1)=C\CC[C@@]1(C)O[C@@H]21 class_assignment=False
compound=CCCn1c2cc(OCc3cn(-c4ccc(Cl)cc4)nn3)ccc2c2ccnc(C)c21 class_assignment=True
compound="COc1cc(C2=NNC(c3ccc(N(C)C)cc3)C2)cc(OC)c1OC (centres undefined)" class_assignment=False
compound="COc1cc(C2CC(c3ccc(Nc4nc(NCCO)nc(NCCO)n4)cc3)=NN2c2cc(Cl)cc(Cl)c2)cc(OC)c1OC (centres undefined)" class_assignment=False
compound="COC1=CC=CC2(OC)C3(O)CCCc4cccc(c43)N3C(=O)COC132 (centres undefined)" class_assignment=True

Where do the numbers come from? From PubChem BioAssay (NCI).
